# Tested on: Renilla luciferase RNA
# experimental.protocol: Barcoded aptazyme variant library screen: un-cleaved Renilla luciferase RNA by barcode read counts, HEK293-T cells
# Assay type: cell-based
# assay.context: un-cleaved Renilla luciferase RNA, HEK293-T cells cultured with 1 mM theophylline (ON) over without theophylline (OFF); barcode read counts, triplicate
For each of the molecules below, state its Fold change in RNA expression between the ON state and the OFF state.
One number for each entry, in fold.

RA144 (nucleic acid, expressed or natural sequence) DNA: GCGCGCGAGAATACCAGCATCGTCTTGATGCCCTTGGAAGTCTCGTCCTGGATTCGCGGAAACGCGTACATCCAGCTGACGAGTCCCAAATAGGACGAAACGCGC    1.4

Task: Requested read-out: Fold change in RNA expression between the ON state and the OFF state. Entry: RA194 (nucleic acid, expressed or natural sequence) DNA: GCGCGTCCTGGATTCGCGGAAACGCGTACATCCAGCTGACGAGAATACCAGCATCGTCTTGATGCCCTTGGAAGTCTCGAGTCCCAAATAGGACGAAACGCGC
Output: 1.2
